pIC50: −log10 of the molar value.
pIC50 for Galectin-3 (Homo sapiens, UniProt P17931) - collated from the literature.
parameter: pIC50

Examples from the recorded data:
molecule | result.value
CO[C@@H]1[C@@H](n2cc(-c3ccc(F)c(F)c3F)nn2)[C@@H](O)[C@@H](CO)O[C@@H]1Cc1cc(-c2ccc(F)c(F)c2F)on1 | 6.27
CC(C)Cc1c(C(S[C@@H]2O[C@H](CO)[C@H](O)[C@H](n3cc(-c4cc(F)c(F)c(F)c4)nn3)[C@H]2O)C2(O)CCC(F)(F)CC2)noc1C1CC1 (stereo not given in full) | 6.96

a. CO[C@@H]1[C@@H](n2cc(-c3cc(F)c(F)c(F)c3)nn2)[C@@H](O)[C@@H](CO)O[C@@H]1CC1=NOC2(CCC(C)CC2)C1 (stereo not given in full)
b. CO[C@@H]1[C@@H](n2cc(-c3ccc(C)c(F)c3F)nn2)[C@@H](O)[C@@H](CO)O[C@@H]1CN1CC2(CCCCC2)NC1=O
Challenge: Lower pIC50: a or b ? Label of pick, please.
Response given: a

* * *

IC50 for Galectin-3 (Homo sapiens, UniProt P17931) - collated from the literature.
parameter: IC50 (µM)

Examples from the recorded data:
compound | units.symbol | IC50
CC(C)(C)c1cc(C[C@H]2O[C@H](CO)[C@H](O)[C@H](n3cc(-c4ccc(Cl)c(F)c4F)nn3)[C@H]2O)on1 | µM | 0.036
N#Cc1cc(Cl)cc(N(C(=O)[C@@H]2O[C@H](CO)[C@H](O)[C@H](n3cc(-c4cc(F)c(Cl)c(F)c4)nn3)[C@H]2O)[C@H]2CCC[C@@H]2O)c1 | µM | 0.0199
Cc1nc(CN(C(=O)[C@@H]2O[C@H](CO)[C@H](O)[C@H](n3cc(-c4cc(F)c(F)c(F)c4)nn3)[C@H]2O)[C@H]2CCCC[C@@H]2O)c[nH]1 | µM | 0.564
Cn1ccc(CN(C(=O)[C@@H]2O[C@H](CO)[C@H](O)[C@H](n3cc(-c4cc(F)c(F)c(F)c4)nn3)[C@H]2O)[C@H]2CCCC[C@@H]2O)n1 | µM | 0.294
CO[C@@H]1[C@@H](n2cc(-c3cccc(F)c3)nn2)[C@@H](O)[C@@H](CO)O[C@H]1C(=O)N(c1cc(Br)cc(C#N)c1)[C@H]1CCCC[C@@H]1O | µM | 0.037

P. CO[C@@H]1[C@@H](n2cc(-c3cc(F)c(Cl)c(F)c3)nn2)[C@@H](O)[C@@H](CO)O[C@@H]1Cc1cc(C2CCN(C(C)=O)CC2)on1
Q. CC1(C)CC(O)(C(S[C@@H]2O[C@H](CO)[C@H](O)[C@H](n3cc(-c4cc(F)c(F)c(F)c4)nn3)[C@H]2O)c2ccccc2C(F)(F)F)CC(C)(C)O1 (stereo not given in full)
R. CO[C@@H]1[C@@H](n2cc(-c3cc(F)c(F)c(F)c3)nn2)[C@@H](O)[C@@H](CO)O[C@H]1SC(c1ncccc1C)C1(O)CCOC(C)(C)C1 (stereo not given in full)
S. Cc1nc2ccc(-c3cn([C@H]4[C@@H](O)[C@@H](CO)O[C@H](CC5CC(C6CCN(C(=O)OC(C)(C)C)CC6)=NO5)[C@@H]4O)nn3)cc2s1 (stereo not given in full)
T. CO[C@@H]1[C@@H](n2cc(-c3cc(F)cc(Cl)c3)nn2)[C@@H](O)[C@@H](CO)O[C@H]1C(=O)N(c1cc(Cl)cc(C#N)c1)[C@H]1CCCC[C@@H]1O
Challenge: Ordering: ascending IC50. # the answer lists labels in the order requested
Response given: T, P, R, Q, S
